# target-system: Cytochrome P450 3A4 (Homo sapiens, UniProt P08684)
# Sequence (P08684 whole entry): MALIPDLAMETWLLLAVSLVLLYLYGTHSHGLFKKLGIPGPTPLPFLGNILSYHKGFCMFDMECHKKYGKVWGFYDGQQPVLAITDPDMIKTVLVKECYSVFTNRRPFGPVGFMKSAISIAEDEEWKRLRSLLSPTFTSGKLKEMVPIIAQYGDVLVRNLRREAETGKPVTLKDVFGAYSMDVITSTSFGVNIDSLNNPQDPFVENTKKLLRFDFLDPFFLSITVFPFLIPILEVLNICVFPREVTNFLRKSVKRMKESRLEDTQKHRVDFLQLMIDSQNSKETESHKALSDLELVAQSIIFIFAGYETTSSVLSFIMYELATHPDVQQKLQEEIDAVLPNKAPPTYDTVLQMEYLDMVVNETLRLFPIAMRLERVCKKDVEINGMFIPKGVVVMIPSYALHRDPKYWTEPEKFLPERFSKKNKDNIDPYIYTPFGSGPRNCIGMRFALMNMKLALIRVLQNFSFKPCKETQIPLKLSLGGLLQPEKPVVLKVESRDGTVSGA

{"smiles-input": "O=C([C@@H]1C[C@H]1c1ccc(C(F)(F)F)cc1)N1CCN(S(=O)(=O)c2cc(-c3nnc[nH]3)cc(C(F)(F)F)c2)CC1", "IC50, µM": 4.7}

###

# target-system: Cannabinoid receptor 1 (Homo sapiens, UniProt P21554)
# Sequence (P21554 whole entry): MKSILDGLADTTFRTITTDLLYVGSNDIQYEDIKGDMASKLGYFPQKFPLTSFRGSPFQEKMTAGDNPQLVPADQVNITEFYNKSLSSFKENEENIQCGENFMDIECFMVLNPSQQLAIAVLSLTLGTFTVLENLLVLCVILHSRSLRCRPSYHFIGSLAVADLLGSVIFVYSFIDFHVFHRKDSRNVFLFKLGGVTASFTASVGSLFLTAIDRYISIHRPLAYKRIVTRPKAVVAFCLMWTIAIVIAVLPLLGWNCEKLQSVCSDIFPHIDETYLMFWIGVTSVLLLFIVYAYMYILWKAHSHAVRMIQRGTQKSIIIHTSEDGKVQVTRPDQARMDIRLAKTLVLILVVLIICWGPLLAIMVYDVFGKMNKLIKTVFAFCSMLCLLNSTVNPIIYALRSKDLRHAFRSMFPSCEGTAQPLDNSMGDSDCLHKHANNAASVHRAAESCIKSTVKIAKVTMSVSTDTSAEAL
# test-protocol: Displacement of [3H]CP-55940 from human recombinant CB1R expressed in CHO cells
# Format: cell-based
pIC50: −log10 of the molar value.
Please enter criterion met where pIC50 is greater than or equal to 8, and criterion not met where it is lower.

{"molecule": "O=C(C1CC1)N1CCN(S(=O)(=O)c2cc(Cl)cc(Cl)c2)CC1", "qualitative-label": "criterion not met"}
{"molecule": "O=C([C@@H]1C[C@H]1c1ccc(C(F)(F)F)cc1)N1CCN(S(=O)(=O)c2cc(CCO)cc(C(F)(F)F)c2)CC1", "qualitative-label": "criterion met"}
{"molecule": "CC(C)(C(=O)N1CCN(S(=O)(=O)c2cc(Cl)cc(Cl)c2)CC1)c1ccccc1", "qualitative-label": "criterion not met"}
{"molecule": "O=C([C@@H]1C[C@H]1c1ccc(C(F)(F)F)cc1)N1CCN(S(=O)(=O)c2cc(C(F)(F)F)cc(C(F)(F)CO)c2)CC1", "qualitative-label": "criterion met"}
{"molecule": "Cc1cc(C)cc(S(=O)(=O)N2CCN(C(=O)C3CCCCC3)CC2)c1", "qualitative-label": "criterion not met"}
{"molecule": "CC1CN(C(=O)C2CCCCC2)CCN1S(=O)(=O)c1cccc2ccccc12 (stereo unspecified)", "qualitative-label": "criterion not met"}
{"molecule": "COC(=O)c1cc(C(F)(F)F)cc(S(=O)(=O)N2CCN(C(=O)Cc3ccc(C(F)(F)F)cc3)CC2)c1", "qualitative-label": "criterion met"}
{"molecule": "O=C([C@@H]1C[C@H]1c1ccc(C(F)(F)F)cc1)N1CCN(S(=O)(=O)c2cc(-c3n[nH]c(=O)[nH]3)cc(C(F)(F)F)c2)CC1", "qualitative-label": "criterion not met"}
{"molecule": "CC(C(=O)N1CCN(S(=O)(=O)c2cc(Cl)cc(Cl)c2)CC1)c1ccccc1 (racemic)", "qualitative-label": "criterion not met"}
{"molecule": "CC(C)Oc1cc(C(F)(F)F)cc(S(=O)(=O)N2CCN(C(=O)[C@@H]3C[C@H]3c3ccc(C(F)(F)F)cc3)CC2)c1", "qualitative-label": "criterion met"}
{"molecule": "C[C@@H]1CN(S(=O)(=O)c2cccc3ccccc23)C[C@H](C)N1C(=O)C1CCCCC1", "qualitative-label": "criterion not met"}
{"molecule": "O=C(C1CCCCC1)N1C2CC1CN(S(=O)(=O)c1cccc3ccccc13)C2", "qualitative-label": "criterion not met"}
{"molecule": "CC(C(=O)N1CCN(S(=O)(=O)c2cc(Cl)cc(Cl)c2)CC1)c1ccc(C(F)(F)F)cc1 (stereo in doubt; 20a)", "qualitative-label": "criterion not met"}
{"molecule": "CC(C(=O)N1CCN(S(=O)(=O)c2cc(Cl)cc(Cl)c2)CC1)c1ccc(C(F)(F)F)cc1 (stereo in doubt; 20b)", "qualitative-label": "criterion not met"}
{"molecule": "O=C(C1CC1)N1CCN(S(=O)(=O)c2cc(Cl)ccc2Cl)CC1", "qualitative-label": "criterion not met"}
{"molecule": "CN(C)C(=O)Oc1cc(C(F)(F)F)cc(S(=O)(=O)N2CCN(C(=O)[C@@H]3C[C@H]3c3ccc(C(F)(F)F)cc3)CC2)c1", "qualitative-label": "criterion met"}
{"molecule": "O=C(Cc1ccc(C(F)(F)F)cc1)N1CCN(S(=O)(=O)c2cc(C3CC3)cc(C(F)(F)F)c2)CC1", "qualitative-label": "criterion met"}
{"molecule": "O=C(C1CC1)N1CCN(S(=O)(=O)c2cc(Cl)c(Cl)cc2Cl)CC1", "qualitative-label": "criterion not met"}
{"molecule": "O=C(c1ccccc1)N1CCN(S(=O)(=O)c2cc(C(F)(F)F)cc(C(F)(F)F)c2)CC1", "qualitative-label": "criterion not met"}
{"molecule": "O=C(Cc1ccc(C(F)(F)F)cc1)NC1CN(S(=O)(=O)c2cc(C(F)(F)F)cc(C(F)(F)F)c2)C1", "qualitative-label": "criterion not met"}
{"molecule": "O=C(Cc1ccc(C(F)(F)F)cc1)N1CCN(S(=O)(=O)c2cc(C(F)(F)F)cc(C(F)(F)F)c2)CC1", "qualitative-label": "criterion met"}
{"molecule": "O=C(Cc1ccc(C(F)(F)F)cc1)N1CCN(S(=O)(=O)c2cc(C(F)(F)F)cc(C(F)(F)F)c2)C1", "qualitative-label": "criterion not met"}
{"molecule": "O=C([C@@H]1C[C@H]1c1ccc(C(F)(F)F)cc1)N1CCN(S(=O)(=O)c2cc(C(O)C(F)(F)F)cc(C(F)(F)F)c2)CC1 (mixture of isomers)", "qualitative-label": "criterion met"}
{"molecule": "Nc1nnc(-c2cc(C(F)(F)F)cc(S(=O)(=O)N3CCN(C(=O)[C@@H]4C[C@H]4c4ccc(C(F)(F)F)cc4)CC3)c2)o1", "qualitative-label": "criterion not met"}
